# study.system: Recombinant mouse PD-L1 (Mus musculus)
# Construct: Fc (Fc chimera); purchased R&D Systems 1019-B7-100
# method.notes: Rescue of mouse splenocyte proliferation in the presence of recombinant PD-L1 (CFSE proliferation assay)
# Type: cell-based
# condition.details: 100 nM compound; CFSE-labelled C57 BL6 mouse splenocytes + anti-CD3/CD28 + PD-L1 (100 ng/mL), 72 h; normalised to stimulated splenocytes as 100%; read-out: Percent rescue of splenocyte proliferation (@100 nM)
Known activation at 0.1 µM of a selection of compounds
Write the answer as a number in %, unit excluded.

The cases that follow already have their activation at 0.1 µM on record.
- NCCCC[C@H](NC(=O)N[C@@H](CC(=O)O)c1nc([C@@H](N)Cc2cnc[nH]2)no1)C(=O)O [Compound 35]: 66
- CC(O)[C@H](NC(=O)N[C@@H](CC(N)=O)c1nc([C@@H](N)C(C)C)no1)C(=O)O (stereo partly shown) [Compound 40]: 67
- CC(O)[C@@H](NC(=O)N[C@@H](CC(N)=O)c1nc([C@@H](N)CO)no1)c1nnc(CO)o1 (stereo partly shown) [Compound 79]: 37

Next compound, please.
Incoming: Which activation at 0.1 µM value belongs to CC(O)[C@H](NC(=O)N[C@@H](CCC(N)=O)c1nc([C@@H](N)CCCNC(=N)N)no1)C(=O)O (stereo partly shown) [Compound 33] ?
Outgoing: 60

###

# key: entry, value: activation at 0.1 µM
# study.system: Recombinant mouse PD-L1 (Mus musculus, UniProt Q9EP73)
# Construct: Fc (Fc chimera); purchased R&D Systems 1019-B7-100
# Sequence (Q9EP73 with tags, fused parts or gaps limits assumed): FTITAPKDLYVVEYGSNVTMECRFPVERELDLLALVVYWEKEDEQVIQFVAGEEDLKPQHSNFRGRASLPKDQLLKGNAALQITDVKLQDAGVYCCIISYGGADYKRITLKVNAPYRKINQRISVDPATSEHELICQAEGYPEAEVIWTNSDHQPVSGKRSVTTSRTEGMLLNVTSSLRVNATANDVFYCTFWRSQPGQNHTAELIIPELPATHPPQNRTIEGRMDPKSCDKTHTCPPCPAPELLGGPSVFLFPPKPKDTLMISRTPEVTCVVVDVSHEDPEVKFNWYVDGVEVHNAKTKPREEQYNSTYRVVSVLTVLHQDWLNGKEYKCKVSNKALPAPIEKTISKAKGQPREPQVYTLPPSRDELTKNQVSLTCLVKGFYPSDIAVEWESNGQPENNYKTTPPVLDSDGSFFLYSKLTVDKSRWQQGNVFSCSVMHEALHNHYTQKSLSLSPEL
# method.notes: Rescue of mouse splenocyte proliferation in the presence of recombinant PD-L1 (CFSE proliferation assay)
# Type: cell-based
# condition.details: 100 nM compound; CFSE-labelled C57 BL6 mouse splenocytes + anti-CD3/CD28 + PD-L1 (100 ng/mL), 72 h; normalised to stimulated splenocytes as 100%; read-out: Percent rescue of splenocyte proliferation (@100 nM)
Give your result in % as a bare value.

Some compounds with known activation at 0.1 µM results, for comparison:
- CCC(C)[C@H](NC(=O)N[C@@H](CC(N)=O)c1nc([C@@H](N)CO)no1)C(=O)O (some centres unmarked): 73
- CC(O)[C@H](NC(=O)N[C@@H](CC(=O)O)c1nc([C@@H](N)Cc2cnc[nH]2)no1)C(=O)O (some centres unmarked): 59

Incoming: # activation at 0.1 µM lookup, item NCCCC[C@H](N)c1noc([C@H](CCC(N)=O)NC(=O)N[C@@H](CO)C(=O)O)n1
Outgoing: 68

Incoming: Looking for the measured activation at 0.1 µM of NCCCC[C@H](NC(=O)N[C@@H](CC(N)=O)c1nc([C@@H](N)CO)no1)C(=O)O , can you help?
Outgoing: 38

Incoming: What does the data say about its activation at 0.1 µM? Entry: C[C@H](NC(=O)N[C@@H](C)c1nc([C@H](C)N)no1)C(=O)O
Outgoing: 76

Incoming: # query: activation at 0.1 µM of entry CC(O)[C@H](NC(=O)N[C@@H](CC(N)=O)c1nc([C@@H](N)CO)no1)C(=O)Nc1ccc2c(c1)OCCO2 (some centres unmarked)
Outgoing: 20

Incoming: Dear colleague, I am looking for the recorded activation at 0.1 µM of the following compound: N[C@@H](CO)c1noc([C@H](CO)NC(=O)N[C@@H](CO)C(=O)O)n1
Outgoing: 49

Incoming: I am curious: what activation at 0.1 µM value has been reported for C[C@H](NC(=O)N[C@@H](CC(N)=O)c1nc([C@@H](N)CO)no1)C(=O)O ?
Outgoing: 57

###

Parameter activation at 0.1 µM: see the listing below.
# study.system: Recombinant mouse PD-L1 (Mus musculus, UniProt Q9EP73)
# Construct: Fc (Fc chimera); purchased R&D Systems 1019-B7-100
# method.notes: Rescue of mouse splenocyte proliferation in the presence of recombinant PD-L1 (CFSE proliferation assay)
# Assay type: cell-based
# condition.details: 100 nM compound; CFSE-labelled C57 BL6 mouse splenocytes + anti-CD3/CD28 + PD-L1 (100 ng/mL), 72 h; normalised to stimulated splenocytes as 100%; read-out: Percent rescue of splenocyte proliferation (@100 nM)
Give the value, in units of %, as a plain number.

Observe how each entry below is paired with its result.
• CC(=O)NCCCC[C@H](NC(=O)N[C@H](C(=O)O)C(C)O)c1nc([C@@H](N)CO)no1 (stereo partly drawn) [Compound 27] = 37
• NC(=O)C[C@H](NS(=O)(=O)C1CCCC1)c1nc([C@@H](N)CO)no1 [Compound 88] = 10
• CSCC[C@H](N)c1noc([C@H](CC(N)=O)NC(=O)N[C@@H](CC(=O)O)C(=O)O)n1 [Compound 46] = 53
• CC(O)[C@H](NC(=O)N[C@@H](C)c1nc([C@@H](N)CO)no1)C(=O)O (stereo partly drawn) [Compound 17] = 58
• CC(O)[C@H](NC(=O)N1CCC[C@H]1c1nc([C@@H](N)CO)no1)C(=O)O (stereo partly drawn) [Compound 6] = 69
• CC(O)[C@H](NC(=O)N[C@@H](CC(N)=O)c1nc([C@@H](N)Cc2ccccc2)no1)C(=O)O (stereo partly drawn) [Compound 13] = 62
• CC(O)[C@H](NC(=O)[C@H](CCC(N)=O)NC(=O)N[C@@H](CC(N)=O)c1nc([C@@H](N)CO)no1)C(=O)O (stereo partly drawn) [Compound 81] = 18
• CCCCCOC(=O)[C@@H](NC(=O)N[C@@H](CC(N)=O)c1nc([C@@H](N)CO)no1)C(C)O (stereo partly drawn) [Compound 80] = 55
• CC(O)[C@H](NC(=O)N[C@@H](CCC(=O)O)c1nc([C@@H](N)CCCCN)no1)C(=O)O (stereo partly drawn) [Compound 38] = 52
• CC(O)[C@H](NC(=O)N[C@@H](CC(N)=O)c1nc([C@@H](N)Cc2ccc(O)cc2)no1)C(=O)O (stereo partly drawn) [Compound 42] = 50

Incoming: Missing value: activation at 0.1 µM, Recombinant mouse PD-L1 (Mus musculus, UniProt Q9EP73), entry CC(O)[C@H](N)c1noc([C@H](Cc2ccccc2)NC(=O)N2CCC[C@H]2C(=O)O)n1 (stereo partly drawn) [Compound 62] . Fill in?
Outgoing: 35

Incoming: Could you share what activation at 0.1 µM was measured for N=C(N)NCCC[C@H](N)c1noc([C@H](CC(=O)O)NC(=O)N[C@@H](CO)C(=O)O)n1 [Compound 30] , tested on Recombinant mouse PD-L1 (Mus musculus, UniProt Q9EP73)?
Outgoing: 65

###

# study.system: Recombinant mouse PD-L1 (Mus musculus, UniProt Q9EP73)
# Construct: Fc (Fc chimera); purchased R&D Systems 1019-B7-100
# method.notes: Rescue of mouse splenocyte proliferation in the presence of recombinant PD-L1 (CFSE proliferation assay)
# Type: cell-based
# condition.details: 100 nM compound; CFSE-labelled C57 BL6 mouse splenocytes + anti-CD3/CD28 + PD-L1 (100 ng/mL), 72 h; normalised to stimulated splenocytes as 100%; read-out: Percent rescue of splenocyte proliferation (@100 nM)
Listed here: items and their measured activation at 0.1 µM.
Report field: quantity (unit follows the number).

- CCCCCCNC(=O)CC[C@@H](NC(=O)N[C@H](C(=O)O)C(C)O)c1nc([C@@H](N)CO)no1 (stereo partly shown): 67%
- CC(O)[C@H](NC(=O)N[C@@H](CC(N)=O)c1nc([C@@H](N)CCC(=O)O)no1)C(=O)O (stereo partly shown): 68%

We now examine a further molecule.
Incoming: Query (molecule): CCN(Cc1ccccc1)C(=O)N[C@@H](CC(N)=O)c1nc([C@@H](N)CO)no1 (stereo in doubt) ; field requested: activation at 0.1 µM
Outgoing: 97%

###

# study.system: Recombinant mouse PD-L1 (Mus musculus, UniProt Q9EP73)
# Construct: Fc (Fc chimera); purchased R&D Systems 1019-B7-100
# method.notes: Rescue of mouse splenocyte proliferation in the presence of recombinant PD-L1 (CFSE proliferation assay)
# Type: cell-based
# condition.details: 100 nM compound; CFSE-labelled C57 BL6 mouse splenocytes + anti-CD3/CD28 + PD-L1 (100 ng/mL), 72 h; normalised to stimulated splenocytes as 100%; read-out: Percent rescue of splenocyte proliferation (@100 nM)
measurement.kind: activation at 0.1 µM (%)
Express it in %; write the number only.

Study these solved cases before continuing.
- CCC(C)[C@H](N)c1noc([C@@H](NC(=O)N[C@H](C(=O)O)C(C)O)C(C)CC)n1 (stereo partly shown) [Compound 52]: 71
- CCC(C)[C@H](NC(=O)N[C@@H](CCC(=O)O)C(=O)O)c1nc([C@@H](N)CCC(N)=O)no1 (stereo partly shown) [Compound 10]: 84
- C[C@@H](O)[C@H](NC(=O)N[C@@H](CC(N)=O)c1nc([C@@H](N)Cc2c[nH]c3ccccc23)no1)C(=O)O (stereo in doubt) [Compound 41]: 78
- CC(O)[C@H](NC(=O)N1CCC[C@H]1c1nc([C@@H](N)Cc2ccc(O)cc2)no1)C(=O)O (stereo partly shown) [Compound 21]: 51
- NCCCC[C@H](N)c1noc([C@H](CC(N)=O)NC(=O)N[C@@H](CO)C(=O)O)n1 [Compound 31]: 42

Incoming: What measured activation at 0.1 µM goes with CC(O)[C@H](NC(=O)N[C@H](c1nc([C@@H](N)CO)no1)C(C)C)C(=O)O (stereo partly shown) [Compound 44] ?
Outgoing: 71

Incoming: Query: activation at 0.1 µM; subject: NC(=O)C[C@H](NS(=O)(=O)C1CCCCC1)c1nc([C@@H](N)CO)no1 [Compound 89]
Outgoing: 54

These measurements were taken from patent US10781189B2.
